System: NOS-1 (Osteosarcoma)
assay_notes: combination Emax (second highest fraction inhibited in the dose matrix, 72 h); higher = more inhibition; extreme values may be limits of the assay
attribute_measured: combination Emax

compound="Cc1c2c(nn1C)CSCc1cc(n(C)n1)CSc1cc(c3ccccc3c1)OCCCc1c(C(=O)O)n(C)c3c-2c(Cl)ccc13 [AZD5991] + C[C@@H]1COCCN1C2=NC(=NC(=C2)C3(CC3)[S@](=N)(=O)C)C4=C5C=CNC5=NC=C4 [AZD6738] (first compound max 1 µM, 7x7, partner max 10 µM)" meas_value=1
compound="CC1(C)CCC(CN2CCN(c3ccc(C(=O)NS(=O)(=O)c4ccc(NCC5CCOCC5)c([N+](=O)[O-])c4)c(Oc4cnc5[nH]ccc5c4)c3)CC2)=C(c2ccc(Cl)cc2)C1 [Venetoclax] + C[C@@H]1COCCN1C2=NC(=NC(=C2)C3(CC3)[S@](=N)(=O)C)C4=C5C=CNC5=NC=C4 [AZD6738] (first compound max 1 µM, 7x7, partner max 10 µM)" meas_value=0.67
compound="COc1nnc2ccc(N3CCC(c4ccc(OCCN5CCN(C)C(=O)[C@H]5C)cc4)CC3)nn12 [AZD5153] + CC1(C)CCC(CN2CCN(c3ccc(C(=O)NS(=O)(=O)c4ccc(NCC5CCOCC5)c([N+](=O)[O-])c4)c(Oc4cnc5[nH]ccc5c4)c3)CC2)=C(c2ccc(Cl)cc2)C1 [Venetoclax] (first compound max 1 µM, 7x7, partner max 1 µM)" meas_value=0.728
compound="Cn1cnc2c(F)c(Nc3ccc(Br)cc3Cl)c(C(=O)NOCCO)cc21 [Selumetinib] + C[C@@H]1COCCN1C2=NC(=NC(=C2)C3(CC3)[S@](=N)(=O)C)C4=C5C=CNC5=NC=C4 [AZD6738] (first compound max 10 µM, 7x7, partner max 10 µM)" meas_value=0.784
compound="CC(=O)c1c(C)c2cnc(Nc3ccc(N4CCNCC4)cn3)nc2n(C2CCCC2)c1=O [Palbociclib] + CC1(C)CCC(CN2CCN(c3ccc(C(=O)NS(=O)(=O)c4ccc(NCC5CCOCC5)c([N+](=O)[O-])c4)c(Oc4cnc5[nH]ccc5c4)c3)CC2)=C(c2ccc(Cl)cc2)C1 [Venetoclax] (first compound max 10 µM, 7x7, partner max 1 µM)" meas_value=0.693
compound="CN(C)CCCOc1ccc(-c2ccc3ncc4c(c3c2)n(C2CCOCC2)c(=O)n4C)cn1 [AZD0156] + C=CCn1c(=O)c2cnc(Nc3ccc(N4CCN(C)CC4)cc3)nc2n1-c1cccc(C(C)(C)O)n1 [AZD1775] (first compound max 1 µM, partner max 1 µM)" meas_value=0.247
compound="CC1(C)CCC(CN2CCN(c3ccc(C(=O)NS(=O)(=O)c4ccc(NCC5CCOCC5)c([N+](=O)[O-])c4)c(Oc4cnc5[nH]ccc5c4)c3)CC2)=C(c2ccc(Cl)cc2)C1 [Venetoclax] + Cn1cnc2c(F)c(Nc3ccc(Br)cc3Cl)c(C(=O)NOCCO)cc21 [Selumetinib] (first compound max 1 µM, 7x7, partner max 3 µM)" meas_value=0.227
compound="CN(CCO)CC[C@H](CSc1ccccc1)Nc1ccc(S(=O)(=O)NC(=O)c2ccc(N3CCC([C@@H](O)c4ccccc4-c4ccc(Cl)cc4)CC3)cc2)cc1S(=O)(=O)C(F)(F)F [AZD4320] + C[C@@H]1COCCN1C2=NC(=NC(=C2)C3(CC3)[S@](=N)(=O)C)C4=C5C=CNC5=NC=C4 [AZD6738] (first compound max 1 µM, 7x7, partner max 10 µM)" meas_value=0.914
compound="C=CCn1c(=O)c2cnc(Nc3ccc(N4CCN(C)CC4)cc3)nc2n1-c1cccc(C(C)(C)O)n1 [AZD1775] + C1CN(CCC1(C(=O)N[C@@H](CCO)C2=CC=C(C=C2)Cl)N)C3=NC=NC4=C3C=CN4 [Capivasertib] (first compound max 3 µM, partner max 3 µM)" meas_value=0.606
compound="CN(CCO)CC[C@H](CSc1ccccc1)Nc1ccc(S(=O)(=O)NC(=O)c2ccc(N3CCC([C@@H](O)c4ccccc4-c4ccc(Cl)cc4)CC3)cc2)cc1S(=O)(=O)C(F)(F)F [AZD4320] + CCN(CCO)CCCOc1ccc2c(Nc3cc(CC(=O)Nc4cccc(F)c4)[nH]n3)ncnc2c1 [AZD2811] (first compound max 1 µM, 7x7, partner max 1 µM)" meas_value=0.667
compound="Cc1cc2ncnn2cc1Nc1ncc2c(n1)n(C1CCOCC1)c(=O)n2C [AZD7648] + O=C(c1cc(Cc2n[nH]c(=O)c3ccccc23)ccc1F)N1CCN(C(=O)C2CC2)CC1 [Olaparib] (first compound max 10 µM, 7x7, partner max 10 µM)" meas_value=0.0915
compound="COc1cccc(OCCCN)c1-c1cc(Nc2cnc(C#N)cn2)n[nH]1 [Prexasertib] + CCc1c2c(nc3ccc(O)cc13)-c1cc3c(c(=O)n1C2)COC(=O)[C@]3(O)CC [SN-38] (first compound max 1 µM, 7x7, partner max 0.3 µM)" meas_value=0.524
compound="NC1(C(=O)N[C@@H](CCO)c2ccc(Cl)cc2)CCN(c2ncnc3[nH]ccc23)CC1 [Capivasertib] + C[C@@H]1COCCN1C2=NC(=NC(=C2)C3(CC3)[S@](=N)(=O)C)C4=C5C=CNC5=NC=C4 [AZD6738] (first compound max 10 µM, 7x7, partner max 10 µM)" meas_value=0.68
